PROTOCOL_DETAILS: chemical genetic growth profiling, strain panel (AID 1159580);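 note: tested at 20 µM; growth read once vehicle control cultures reached saturation at 30 °C; 1 = growth at the plate median or of vehicle wells; lower values mean less growth of the strain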
CONDITION_CONTEXT: S. cerevisiae deletion strains, growth OD, locus YIL073C, strain SPO22, hits give low values
Out of some 5,500 compounds screened, about 2,000 (36%) were called active. About 18% were inconclusive and are not listed. Some of the results follow.
normalized growth values by entry

Reference set, count: 5
- COMPOUND: "CCCCOC(=O)c1ccccc1C(=O)OCc1ccccc1"
  DATA_VALUE: "0.821 (inactive)"
- COMPOUND: "CCCCCCOc1ccccc1C(N)=O"
  DATA_VALUE: "0.535 (active)"
- COMPOUND: "C=C1CCC(C2CC(=O)OC2=O)C(=O)CCC2C1CC2(C)C (configuration not stated)"
  DATA_VALUE: "1.02 (inactive)"
- COMPOUND: "COc1cc(-c2coc3cc(OC)c(OC)c(OC)c3c2=O)cc(OC)c1OC"
  DATA_VALUE: "0.921 (inactive)"
- COMPOUND: "CCCCOC(=O)c1ccc(N)cc1"
  DATA_VALUE: "0.85 (inactive)"

Query string: I'd like to know its normalized growth. The compound in question is COC(=O)[C@@H]1OC(=O)[C@H]2O[C@@]23[C@@]1(C)CCC1[C@@]2(C)CCC(=O)C(C)(C)C2C[C@@H](OC(C)=O)[C@]13C (some centres not stated)
Result string: 0.998 (inactive)

Query string: Likewise for C=C1CCC(OC(C)=O)/C(C)=C/C[C@@H]2[C@@H]1CC2(C)C (some centres not stated) ?
Result string: 1.06 (inactive)

Query string: Likewise for `COc1cc(-c2coc3cc(OCc4ccccc4)c(OC)c(O)c3c2=O)cc(O)c1OC` ?
Result string: 0.685 (inactive)

Query string: Likewise for `CCCCNc1ccc(C(=O)OCCN(C)C)cc1` ?
Result string: 1.04 (inactive)

Query string: Likewise for `CCCCOC(=O)c1ccccc1C(=O)OCCCC` ?
Result string: 0.867 (inactive)

Query string: Likewise for `CCN(CC)CCOC(=O)c1ccc(N)cc1` ?
Result string: 0.969 (inactive)

Query string: Likewise for C=C1CCC2C(CC2(C)C)C(=O)CCC1O (configuration not stated) ?
Result string: 1.09 (inactive)

====

PROTOCOL_DETAILS: chemical genetic growth profiling, strain panel (AID 1159580);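 note: tested at 20 µM; growth read once vehicle control cultures reached saturation at 30 °C; 1 = growth at the plate median or of vehicle wells; lower values mean less growth of the strain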
CONDITION_CONTEXT: S. cerevisiae deletion strains, growth OD, locus YKL085W, strain MDH1 (second series), hits give low values
The whole screen tested about 5,500 compounds, of which about 2,000 (36%) were called active. Not shown: some 18% with an inconclusive outcome. The list shows a part of the results.
normalized growth under 1 gets met, anything at or over 1 gets not met.

The following molecules have reported results that may help.
- MOLECULE: "CC1(C)O[C@H]2[C@H](O)C[C@](O)(C(N)=O)C[C@H]2O1"
  CLASS: "not met"
- MOLECULE: "COc1cc2occ(-c3ccccc3)c(=O)c2c(OC)c1C"
  CLASS: "met"
- MOLECULE: "Cc1ccc(Cl)c(Nc2ccccc2C(=O)O)c1Cl"
  CLASS: "met"
- MOLECULE: "C#CCCCCCCCCCCCC(=O)CC(O)COC(C)=O (stereo unspecified)"
  CLASS: "met"
- MOLECULE: "Cc1c(Cl)cccc1Nc1ccccc1C(=O)O"
  CLASS: "met"

Query string: Item CC[C@H](C)C(=O)O[C@H]1CCC=C2C=C[C@H](C)C(CCC3C[C@@H](O)CC(=O)O3)[C@H]21 (stereo partly specified) : normalized growth beneath 1, strictly?
Result string: met

Query string: Likewise for `Clc1cccc(Cl)c1NC1=NCCN1` ?
Result string: not met

Query string: Likewise for CC1(C)C2(Cl)C(Cl)C(Cl)C(Cl)(C(Cl)Cl)C1(Cl)C2Cl (stereo unspecified) ?
Result string: met

Query string: Likewise for C=CCCCCCCCCCCCC(O)CC(O)COC(C)=O (stereo unspecified) (tested in a mixture with another compound) ?
Result string: met

Query string: Likewise for `COc1cc(-c2coc3cc(OCc4ccccc4)c(OC)c(O)c3c2=O)cc(OCc2ccccc2)c1OC` ?
Result string: not met

Query string: Likewise for `CC(C)NNC(=O)c1ccncc1` ?
Result string: not met

Query string: Likewise for C#CCCCCCCCCCCCC(O)CC(O)COC(C)=O (stereo unspecified) ?
Result string: met

Data origin, for the record: PubChem BioAssay AID1159580
